Tested on: Bcap37
assayOverview: Antiproliferative activity against human BcaP37 cells assessed as cell viability incubated for 24 hrs by CCk8 assay
Assay type: functional, cell-based
condition: Bcap37, 24 h
assayReadout: IC50 (µM)
Write the value in µM as a bare number.

C#CCOc1ccc(-c2cc2=O)cc1 | 45
C#CCOc1ccc(-c2c(-c3ccc(OCC#C)cc3)c2=O)cc1 | 26.1
C#CCOc1ccc(-c2c(N(CC)CC)c2=O)cc1 | 46.1

Prompt: For the molecule `C#CCOC(=O)CCCCc1cc1=O` , what IC50 is on record?
Completion: 10.6

====

System: MDA-MB-468
assayOverview: Antiproliferative activity agaisnt human MDA-MB-468 cells assessed as cell viability incubated for 24 hrs in presence of GSTP1 siRNA by CCK8 assay
Assay type: functional, cell-based
condition: MDA-MB-468, 24 h
assayReadout: pIC50
As a rule, pIC50 stands for the negative log10 of the concentration, concentration in M.

O=c1cc1-c1ccc(OCc2ccccc2)cc1 | 5.30

# context switch: different compound, same pIC50
Prompt: Test system MDA-MB-468; read-out pIC50; what value for `COc1ccc2cc(-c3cc3=O)ccc2c1` ?
Completion: 4.70

Hello, the source for this data is ChEMBL document CHEMBL5053524, in case you need it.
